test system: Rattus norvegicus; experiment: Antiulcer activity in Wistar Rattus norvegicus (rat) assessed as increase in pH of gastric secretions at 0.1158 mM/kg, po administered 1 hr prior to pylorous ligation measured after 19 hr by digital pH metric analysis relative to untreated control; assay type: functional, Stomach
readout.kind: Activity (%)
Please reply with the bare figure in % and do not write the unit itself.

The examples below pair each entry with its known result.
>  <compound>
[O-][S+](Cc1nc(OCC(F)(F)F)c2c(-c3ccc(Cl)cc3)csc2n1)c1nc2ccccc2[nH]1 (centres undefined)

>  <unit.tag>
%

>  <experimental.value>
32.86

$$$$
>  <compound>
COc1nc(C[S+]([O-])c2nc3ccccc3[nH]2)nc2sc3c(c12)CCCC3 (centres undefined)

>  <unit.tag>
%

>  <experimental.value>
23.55

$$$$
>  <compound>
COc1ccc2[nH]c([S+]([O-])Cc3nc(OC)c4c(-c5ccccc5)csc4n3)nc2c1 (centres undefined)

>  <unit.tag>
%

>  <experimental.value>
10.84

$$$$

Now for another entry.
// Activity lookup, compound = [O-][S+](Cc1nc(OCC(F)(F)F)c2c(-c3ccccc3)csc2n1)c1nc2ccccc2[nH]1 (centres undefined) , result: 8.09

###

test system: Rattus norvegicus; assay: Antiulcer activity in Wistar Rattus norvegicus (rat) assessed as decrease in total volume of gastric secretions at 0.1158 mM/kg, po administered 1 hr prior to pylorous ligation measured after 19 hr relative to untreated control; format: functional, Stomach; design: scale not given: the % may be the effect or the level left
Classification field: 1 = Activity at or over 60%; -1 = Activity under 60%.

>  <compound>
COc1ccc2[nH]c([S+]([O-])Cc3ncc(C)c(OC)c3C)nc2c1 (stereo not drawn) [OMEPRAZOLE]

>  <label.class>
1

$$$$
>  <compound>
COc1nc(C[S+]([O-])c2nc3ccccc3[nH]2)nc2scc(-c3ccc(Cl)cc3)c12 (stereo not drawn)

>  <label.class>
1

$$$$
>  <compound>
[O-][S+](Cc1nc(OCC(F)(F)F)c2c(-c3ccccc3)csc2n1)c1nc2ccccc2[nH]1 (stereo not drawn)

>  <label.class>
-1

$$$$

[ask] In plain terms: is recorded Activity at least 60% for COc1nc(C[S+]([O-])c2nc3ccccc3[nH]2)nc2scc(-c3ccccc3)c12 (stereo not drawn) ?
[reply] 1

[ask] Could you please find out whether COc1ccc2[nH]c([S+]([O-])Cc3nc(Cl)c4c(-c5ccc(Cl)cc5)csc4n3)nc2c1 (stereo not drawn) has Activity that meets 60% or exceeds it?
[reply] 1

[ask] Test whether the compound COc1ccc2[nH]c([S+]([O-])Cc3nc(OC)c4c(-c5ccc(Cl)cc5)csc4n3)nc2c1 (stereo not drawn) records Activity of 60% or higher.
[reply] -1

[ask] Kindly determine if Activity recorded for COc1ccc2[nH]c([S+]([O-])Cc3nc(OC)c4c(-c5ccccc5)csc4n3)nc2c1 (stereo not drawn) is above or exactly 60%.
[reply] -1

[ask] State whether the measured Activity reaches 60%, counting equality as reaching it, for COc1nc(C[S+]([O-])c2nc3ccccc3[nH]2)nc2sc3c(c12)CCCC3 (stereo not drawn)
[reply] -1

###

tested on: Rattus norvegicus; test: Antiulcer activity in Wistar Rattus norvegicus (rat) assessed as increase in pH of gastric secretions at 0.1158 mM/kg, po administered 1 hr prior to pylorous ligation measured after 19 hr by digital pH metric analysis relative to untreated control; type: functional, Stomach
# label = MET if Activity < 20% else NOT MET

>  <molecule>
COc1ccc2[nH]c([S+]([O-])Cc3nc(OC)c4c5c(sc4n3)CCCC5)nc2c1 (centres undefined)

>  <label.class>
MET

$$$$
>  <molecule>
COc1ccc2[nH]c([S+]([O-])Cc3nc(OC)c4c(-c5ccc(Cl)cc5)csc4n3)nc2c1 (centres undefined)

>  <label.class>
MET

$$$$
>  <molecule>
[O-][S+](Cc1nc(OCC(F)(F)F)c2c3c(sc2n1)CCCC3)c1nc2ccccc2[nH]1 (centres undefined)

>  <label.class>
MET

$$$$
>  <molecule>
COc1nc(C[S+]([O-])c2nc3ccccc3[nH]2)nc2scc(-c3ccccc3)c12 (centres undefined)

>  <label.class>
MET

$$$$

[ask] Dear reviewer, please state whether COc1nc(C[S+]([O-])c2nc3ccccc3[nH]2)nc2scc(-c3ccc(Cl)cc3)c12 (centres undefined) has Activity strictly beneath 20%.
[reply] NOT MET

[ask] I wonder whether COc1ccc2[nH]c([S+]([O-])Cc3nc(Cl)c4c(-c5ccccc5)csc4n3)nc2c1 (centres undefined) has Activity below 20%. Can you tell?
[reply] MET

[ask] Input COc1ccc2[nH]c([S+]([O-])Cc3ncc(C)c(OC)c3C)nc2c1 (centres undefined) ; condition: Activity strictly below 20%. Does it hold?
[reply] NOT MET
